Below, each entry is listed with its recorded T/C.
tested on: P388 leukemia ip, CD2F1 mice, survival T/C; assay: NCI In Vivo Anticancer Drug Screen. Data for tumor model P388 Leukemia (intraperitoneal) in CD2F1 (CDF1) mice; settings: endpoint: median survival time; dose: 12.5 mg/kg/injection; schedule: Q01DX009 (ip); vehicle: Klucel (hydroxypropylcellulose) (HPC); higher = longer survival
Toxic doses and inconclusive results are not listed.

INSERT INTO results (compound, assay_value) VALUES
  ('CNS(=O)(=O)c1c([N+](=O)[O-])ncn1C', '109 % of control'),
  ('O=[N+]([O-])c1ccc([O-])c([I+]c2ccccc2)c1', '94 % of control'),
  ('C=C(C)C1CCC2=CC(CC3(C)OC3C3=CC(C(=O)OC)=C(C1)O3)OC2=O (stereo unspecified)', '99 % of control'),
  ('O=C(O)c1ccc(S(=O)(=O)OCCCl)cc1', '100 % of control'),
  ('CC1CCC(C(C)C2C(O)CC3C4CCC5CC(N)CCC5(C)C4CCC32C)=NC1 (stereo unspecified) (tested in a mixture with another compound)', '94 % of control');

Tested on P388 leukemia ip, CD2F1 mice, survival T/C: COc1ccc2nc(N)sc2c1 . Observed T/C: 97 % of control

Observed T/C, P388 leukemia ip, CD2F1 mice, survival T/C, Cc1ccc2nc(NC(=S)SSC(=S)Nc3nc4ccc(C)cc4s3)sc2c1 : 108 % of control

P388 leukemia ip, CD2F1 mice, survival T/C T/C of C=C1C(=O)OC2CC1C(O)C/C(C)=C/CC/C(C)=C/C(O)CC2C (stereo unspecified) is 110 % of control

----------
test system: P388 leukemia ip, CD2F1 mice, survival T/C; assay: NCI In Vivo Anticancer Drug Screen. Data for tumor model P388 Leukemia (intraperitoneal) in CD2F1 (CDF1) mice; settings: endpoint: median survival time; dose: 30.0 mg/kg/injection; schedule: Q01DX005 (ip); vehicle: Klucel (hydroxypropylcellulose) (HPC); higher = longer survival
Inconclusive results and toxic doses are left out.
quantity name: T/C

Worked cases, T/C given:
INSERT INTO assay_data (compound, subject_of_test, assay_value) VALUES
  ('CC(C)=CCc1c(O)ccc(C(=O)[C@H]2C(c3ccc(O)cc3O)CC(C)=C[C@@H]2c2c(O)cc(O)c3c(=O)c(CC=C(C)C)c(-c4ccc(O)cc4O)oc23)c1O (some centres undefined)', 'P388 leukemia ip, CD2F1 mice, survival T/C', '93 % of control'),
  ('CC/C(=C(\c1ccccc1)c1ccc(OCCNC)cc1)c1ccccc1', 'P388 leukemia ip, CD2F1 mice, survival T/C', '88 % of control'),
  ('CC1(C)C(=O)C2=C(OC3([Se]2)C(=O)C(C)(C)C(=O)C(C)(C)C3=O)C(C)(C)C1=O', 'P388 leukemia ip, CD2F1 mice, survival T/C', '107 % of control');

Turning to the following compound.
P388 leukemia ip, CD2F1 mice, survival T/C T/C of CC(=O)N1CN=C2Sc3ccccc3N2C1 is 105 % of control

----------
Recorded T/C values for a group of compounds are listed next.
test system: P388 leukemia ip, CD2F1 mice, survival T/C; test: NCI In Vivo Anticancer Drug Screen. Data for tumor model P388 Leukemia (intraperitoneal) in CD2F1 (CDF1) mice; conditions: endpoint: median survival time; dose: 12.5 mg/kg/injection; schedule: Q01DX001 (ip); vehicle: saline with Tween-80; higher = longer survival
Toxic doses and inconclusive results are not listed.

So, O=S(=O)(/N=C1/c2ccccc2/C(=N/S(=O)(=O)c2ccccc2)C2CC=CCC12)c1ccccc1 (stereo not given) ? Its T/C was 95 % of control

Briefly, T/C measured for O=C1OCCCCCCOC(=O)c2ccccc2SSc2ccccc21 : 101 % of control

----------
system: P388 leukemia ip, CD2F1 mice, survival T/C; test: NCI In Vivo Anticancer Drug Screen. Data for tumor model P388 Leukemia (intraperitoneal) in CD2F1 (CDF1) mice; conditions: endpoint: median survival time; dose: 50.0 mg/kg/injection; schedule: Q01DX005 (ip); vehicle: Klucel (hydroxypropylcellulose) (HPC); higher = longer survival
Toxic doses and inconclusive results are not listed. Peptide text beside a SMILES is read from it.
# key: entry, value: T/C

Worked cases, T/C given:
INSERT INTO results (compound, subject_of_test, assay_value) VALUES
  ('O=C(O)[C@H](Cc1ccccc1)N1C(=O)c2ccccc2C1=O', 'P388 leukemia ip, CD2F1 mice, survival T/C', '109 % of control'),
  ('O=C(/C=C/c1ccc2c(c1)OCO2)c1ccccc(=O)c1O', 'P388 leukemia ip, CD2F1 mice, survival T/C', '100 % of control'),
  ('Cc1ccccc1N=C(c1ccccc1)C1C(=O)c2ccccc2C1=O', 'P388 leukemia ip, CD2F1 mice, survival T/C', '103 % of control'),
  ('COC(=O)n1c(=O)oc2ccc(Br)cc21', 'P388 leukemia ip, CD2F1 mice, survival T/C', '104 % of control'),
  ('CC(=O)OCC1OC(n2cnc3c(Cl)nc(Cl)nc32)CC(OC(C)=O)C1OC(C)=O (centres undefined)', 'P388 leukemia ip, CD2F1 mice, survival T/C', '93 % of control'),
  ('OC(c1cc(-c2cccc(Cl)c2)nc2ccccc12)C1CCCCN1 (centres undefined)', 'P388 leukemia ip, CD2F1 mice, survival T/C', '112 % of control'),
  ('CCC(C)C(NC(=O)C(N)CCCN=C(N)N)C(=O)O (stereo not drawn) (H-Arg-Ile-OH; configuration not given here)', 'P388 leukemia ip, CD2F1 mice, survival T/C', '98 % of control'),
  ('O=C1/C(=C/c2cccc(O)c2O)SC(=S)N1Cc1ccco1', 'P388 leukemia ip, CD2F1 mice, survival T/C', '102 % of control');

Looking up C[C@H]1CC[C@@H]2O[C@@]23C(=O)OC2OC(C)(C)[C@@H]([C@H]2O)[C@]13C , I found its T/C recorded as 102 % of control

Summary for this compound, O=C(OCCCl)c1ccccc1NC(=O)N1CCOCC1 : T/C is 105 % of control

Form: compound = CC(C)(C)OC(=O)NCCCCC(NC(=O)OCc1ccccc1)C(=O)O (centres undefined) ; T/C = 100 % of control

----------
System: P388 leukemia ip, CD2F1 mice, survival T/C
Test: NCI In Vivo Anticancer Drug Screen. Data for tumor model P388 Leukemia (intraperitoneal) in CD2F1 (CDF1) mice
Conditions: endpoint: median survival time; dose: 200.0 mg/kg/injection; schedule: Q01DX005 (ip); vehicle: saline with Tween-80
Description: The antitumor activity of compounds was measured in mice bearing transplantable tumors. Survival or tumor size were measured and the results are expressed as the measurement made in the treated group (T) divided by the measurement made in the vehicle treated control group (C). The tumor model used in this assay is P388 Leukemia (intraperitoneal) in CD2F1 (CDF1) mice
Inconclusive results and toxic doses are left out. Rule for the calls: active = survival T/C of 150% or more; inactive = T/C below 125% in these data.
Choose the fitting class; nothing outside active, inactive is accepted.

Use these answered entries as a reference point.
INSERT INTO assay_data (compound, class_assignment) VALUES
  ('COC1CCCCC1C(=O)C(C#N)C1CCCCC1C1CCCCC1 (centres undefined)', 'inactive'),
  ('COC(=O)[C@H]1[C@H]2C[C@@H]3c4[nH]c5cc(OC)ccc5c4CCN3C[C@H]2C[C@@H](OC(=O)c2cccc(N)c2)[C@@H]1OC', 'inactive'),
  ('CC(=O)N/N=C1/C=C2C/C(=N\NC(C)=O)C=C2C1', 'inactive'),
  ('CCOC(=O)C1C(=O)CN(C(=O)OC)C1C(=O)OCC (centres undefined)', 'inactive');

Query: How was O=C1C2C3C=CC(C3)C2C(=O)N1O (centres undefined) classified in this test?
Reply: inactive

Query: Please state the recorded outcome for this compound: O=C(CNC1=NCCN1)Nc1ccc(NC(=O)c2ccc(C(=O)Nc3ccc(NC(=O)CNC4=NCCN4)cc3)cc2)cc1
Reply: active

Query: Hello, I am checking results. What call was entered for COc1ccc(C2[C@@H]3CCc4ccccc4C3=NN2C(C)=O)cc1 (some centres undefined) ?
Reply: inactive

Query: Recorded test outcome, item CC(C)CC(NC(=O)C(Cc1ccccc1)NC(=O)CNC(=O)C(C)NC(=O)C(N)Cc1ccc(O)cc1)C(=O)O (centres undefined)
Reply: inactive

Query: Give the logged outcome of this assay for the following compound: O=C(CCn1[nH]c(=O)c(Cl)c(Cl)c1=O)NNc1ccc([N+](=O)[O-])cc1[N+](=O)[O-]
Reply: inactive

----------
tested on: P388 leukemia ip, CD2F1 mice, survival T/C; assay: NCI In Vivo Anticancer Drug Screen. Data for tumor model P388 Leukemia (intraperitoneal) in CD2F1 (CDF1) mice; settings: endpoint: median survival time; dose: 6.25 mg/kg/injection; schedule: Q01DX005 (ip); vehicle: saline with Tween-80; higher = longer survival
Inconclusive results and toxic doses are left out.
quantity name: T/C

// solved cases for T/C follow
INSERT INTO assay_data (chemical_string, assay_value) VALUES
  ('COC(=O)C1=CC(=O)N2C(=Nc3cccc4cccc2c34)S1', '91 % of control'),
  ('CCCCCCC(=O)/C=C/c1ccc(OCc2ccccc2)c(OCc2ccccc2)c1', '92 % of control'),
  ('CC1(C)C(=O)N(Cl)C(=O)N1Cl', '92 % of control'),
  ('O=C1c2cc3c(-c4ccccc4)oc(-c4ccccc4)c3cc2C(=O)c2c(O)ccc(O)c21', '94 % of control'),
  ('CCOC(=O)C1=CNc2ccccc2N=C1N', '112 % of control');

Briefly, T/C measured for O=C(CN1CCCCC1)Nc1nc(-c2ccc(Cl)cc2)cs1 : 100 % of control

Given item CCOC(=O)/C(C#N)=C/N1CCCC1 , the value recorded as its T/C is 107 % of control
